target: T1, human PILRB, ectopically expressed on 293 cells (human, UniProt Q9UKJ0 20-227); assay: flow cytometry, 293 cells expressing target
T1 construct: also called hB
T1 sequence (Q9UKJ0 20-227): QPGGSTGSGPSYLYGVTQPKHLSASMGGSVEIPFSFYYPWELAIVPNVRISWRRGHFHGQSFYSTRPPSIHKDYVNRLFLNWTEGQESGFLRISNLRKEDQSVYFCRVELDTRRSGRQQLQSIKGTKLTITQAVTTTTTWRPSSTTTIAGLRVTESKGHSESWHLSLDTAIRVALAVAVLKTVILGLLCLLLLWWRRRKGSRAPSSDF
metric-name: binding result

The examples below pair each entry with its known result.
INSERT INTO assay_data (binder, result) VALUES
  ('A4 (antibody, V domains shown, phage campaign) VH: QVQLVQSGAEVKKPGSSVKVSCKASGYTFTGYAVNWVRQAPGQGLEWMGGIIPIFGTANYAQKFQGRVTITADESTSTAYMELSSLRSEDTAVYYCARNLGYSSGWSGYYYGMDVWGQGTMVTVSS VL: EIVMTQSPATLSVSPGERATLSCRASQSVSSNYLAWYQQKPGQAPRLLIYGASTRATGIPARFSGSGSGTEFTLTISSLQSEDFAVYYCQQYGSSSFTFGPGTKLEIK', 'no binding'),
  ('D5 (antibody, V domains shown, second hybridoma campaign) VH: EVKLDETGGGLVQPGRPMKLSCVASGFTFSDYWMNWVRQSPEKGLEWVAQIRNKLYNYETYYSDSVKGRFTISRDDSKSSVYLQMNNLRAEDMGIYYCTVGLAMDYWGQGTSVTVSS VL: DIQMTQSSSSFSVSLGDRVTITCKASEDIYNRLAWYQQKPGNAPRLLISGATSLETGVPSRFSGSGSGKEYTLNITSLQTEDVATYYCQQYWSTPTFGGGTKLEIK', 'no binding'),
  ('D2 (antibody, V domains shown, second hybridoma campaign) VH: QIQLGQSGPELKRPRETVKISCKASGYTFTTYGMSWVKQAPGKGLRWMGWINTHSGVPAYADDFKGRFAFSLETSANTAFLQINNLENEDTATYFCAKDYNWGMDYWGQGTSVIVSS VL: QLVLTQSSSASFSLGASAKLTCTLSSQHSTYTIEWYQQQPLKPPKYVMEVKKDGSHSTGDGIPDRFSGSSSGADRYLSISNIQPEDEAIYICGVGDSIKEQFVYVFGGGTKVTVL', 'no binding'),
  ('D1 (antibody, V domains shown, second hybridoma campaign) VH: QVQLQQSGVELARPGASVKLSCKASGYNFTSYGINWVKQRTGQGLEWIGKSYPTSGNNYYNEKFKGKATVTADKSSSTAYMELRSLTSEDSAVYFCGVWYGSLFAHWGQGTLVTVTA VL: DIVMTQSQKFMSTSVGDRVRVTCKASQNVGFNVAWYQQKPGQSPKVLIYSASYRYSGVPDRFTGSGSGTDFTLTITNVQSEDLAEYFCHQYNNFPFTFGSGTKLEIK', 'no binding');

For record E12 (antibody, V domains shown, B-cell cloning campaign (mice)) VH: QVQLQQSGAELAKPGASVKLSCKASGYTFTSYWIHWVKQRPGQGLEWIGYINPSSGDTEYNQKFKDKATLTADKSSNTAYMQLSSLTYEDSAVYYCARSAPDDGYYDYAMDYWGQGTSVTVSS VL: DIVMTQSRKFMSTSVGDRVSVTCKASQNVGSNVAWYQQKPGQSPKGLTYSASYRYSGVPDRFTGSGSGTDFTLTISNVQSEDLAEYFCQQYNSYPYTFGGGTKLEIK the listed binding result is no binding

Reference source for all entries: patent US20240425587A1
